Data provenance: paper PMC9663165

List of loss in binding relative to WT values.
- MEASURED TARGET: T1, CD28-GFP (human, UniProt P10747 19-220)
- T1 construct: human CD28, member of the human Ig superfamily library; source: HEK293F, transfected, on cells; not shown: GFP, C-terminal, kept
- TEST DESCRIPTION: flow cytometry on cells; cell-cell conjugates: HEK293F cells expressing 92 B7-1–mCherry point mutants (IgV domain) against HEK293F cells expressing CTLA-4–GFP, CD28-GFP or p75NTR-GFP; percent of WT binding
- COND: partners not purified

>>> assay_result("hB7-1 E41A–mCherry (ligand, human, UniProt P33681 35-288, looked up, human B7-1 (CD80), point mutant in the IgV domain; source: HEK293F, transfected, on cells) VIHVTKAVKEVATLSCGHNVSVEELAQTRIYWQKEKKMVLTMMSGDMNIWPEYKNRTIFDITNNLSIVILALRPSDEGTYECVVLKYEKDAFKREHLAEVTLSVKADFPTPSISDFEIPTSNIRRIICSTSGGFPEPHLSWLENGEELNAINTTVSQDPETELYAVSSKLDFNMTTNHSFMCLIKYGHLRVNQTFNWNTTKQEHFPDNLLPSWAITLISVNGIFVICCLTYCFAPRCRERRRNERLRRESVRPV")
"> 25%"

Give the reported loss in binding relative to WT for this binder. hB7-1 L131D–mCherry (ligand, human, UniProt P33681 35-288, looked up, human B7-1 (CD80), point mutant in the IgV domain; source: HEK293F, transfected, on cells) VIHVTKEVKEVATLSCGHNVSVEELAQTRIYWQKEKKMVLTMMSGDMNIWPEYKNRTIFDITNNLSIVILALRPSDEGTYECVVLKYEKDAFKREHDAEVTLSVKADFPTPSISDFEIPTSNIRRIICSTSGGFPEPHLSWLENGEELNAINTTVSQDPETELYAVSSKLDFNMTTNHSFMCLIKYGHLRVNQTFNWNTTKQEHFPDNLLPSWAITLISVNGIFVICCLTYCFAPRCRERRRNERLRRESVRPV
> 25%

Report loss in binding relative to WT, nothing else, for this binder: hB7-1 V45D–mCherry (ligand, human, UniProt P33681 35-288, looked up, human B7-1 (CD80), point mutant in the IgV domain; source: HEK293F, transfected, on cells) VIHVTKEVKEDATLSCGHNVSVEELAQTRIYWQKEKKMVLTMMSGDMNIWPEYKNRTIFDITNNLSIVILALRPSDEGTYECVVLKYEKDAFKREHLAEVTLSVKADFPTPSISDFEIPTSNIRRIICSTSGGFPEPHLSWLENGEELNAINTTVSQDPETELYAVSSKLDFNMTTNHSFMCLIKYGHLRVNQTFNWNTTKQEHFPDNLLPSWAITLISVNGIFVICCLTYCFAPRCRERRRNERLRRESVRPV
> 25%
